system: Escherichia coli TOP10; experiment: shrunken log2 fold change of peptide-encoding DNA abundance (4.5 h post-induction vs induction); higher = less antimicrobial activity (less host growth inhibition); details: time post-induction: 4.5 h; library: site-saturation at positions 5, 18, 19, 20
Recorded Endpoint: shrunken log2 fold change
Lab note: record the figure alone, no unit after it.

Take a look at these entries with their results.
[
  {
    "Chain Sequence": "RRIRCRPPRLPRPRPRPHQHPRP",
    "shrunken log2 fold change": -0.302
  },
  {
    "Chain Sequence": "RRIRFRPPRLPRPRPRPLMAPRP",
    "shrunken log2 fold change": -0.581
  },
  {
    "Chain Sequence": "RRIRFRPPRLPRPRPRPACAPRP",
    "shrunken log2 fold change": 0.291
  }
]

Task item: Param request: shrunken log2 fold change | system Escherichia coli TOP10 | item RRIRARPPRLPRPRPRPIRRPRP
Reply: 0.24

Task item: Provide shrunken log2 fold change, system Escherichia coli TOP10, entry RRIRIRPPRLPRPRPRPNMQPRP
Reply: -0.29

Task item: Lab note: record shrunken log2 fold change of RRIRNRPPRLPRPRPRPRDPPRP tested on Escherichia coli TOP10.
Reply: 0.457

Task item: Write down the reported shrunken log2 fold change (system: Escherichia coli TOP10) of RRIRGRPPRLPRPRPRPSEEPRP
Reply: 0.503

Task item: Enter recorded shrunken log2 fold change with Escherichia coli TOP10 for RRIRLRPPRLPRPRPRPASIPRP here.
Reply: 0.0291

Task item: Jot down shrunken log2 fold change (Escherichia coli TOP10) of RRIRQRPPRLPRPRPRPMPGPRP .
Reply: 0.0214

Task item: Provide shrunken log2 fold change, system Escherichia coli TOP10, entry RRIRVRPPRLPRPRPRPIDYPRP
Reply: 0.0808

Task item: Report the value of shrunken log2 fold change obtained on Escherichia coli TOP10 for RRIRSRPPRLPRPRPRPAHSPRP .
Reply: -0.332

Task item: Look up and report measured shrunken log2 fold change (Escherichia coli TOP10) for the following sequence: RRIRTRPPRLPRPRPRPRTMPRP
Reply: 0.0616

Task item: Write down the reported shrunken log2 fold change (system: Escherichia coli TOP10) of RRIRPRPPRLPRPRPRPEPVPRP;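 further: peptides expressed intracellularly from a pBAD plasmid library in pooled LB shake-flask culture, induced with 0.3% L-arabinose, DNA abundance read by NGS, three biological replicates, DESeq2 with apeglm shrinkage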
Reply: 0.12

Task item: Write down measured shrunken log2 fold change (Escherichia coli TOP10) for this sequence. RRIRHRPPRLPRPRPRPWRKPRP
Reply: -0.00968

Task item: Jot down shrunken log2 fold change (Escherichia coli TOP10) of RRIRLRPPRLPRPRPRPNGWPRP .
Reply: 0.044
